This collection of values is drawn from ChEMBL document CHEMBL5241118.

molecular target: Phosphatidylinositol 4,5-bisphosphate 3-kinase catalytic subunit beta isoform (Homo sapiens, UniProt P42338); assay: Binding affinity to PI3Kbeta (unknown origin) assessed as dissociation constant
Sequence (P42338 whole entry, canonical isoform): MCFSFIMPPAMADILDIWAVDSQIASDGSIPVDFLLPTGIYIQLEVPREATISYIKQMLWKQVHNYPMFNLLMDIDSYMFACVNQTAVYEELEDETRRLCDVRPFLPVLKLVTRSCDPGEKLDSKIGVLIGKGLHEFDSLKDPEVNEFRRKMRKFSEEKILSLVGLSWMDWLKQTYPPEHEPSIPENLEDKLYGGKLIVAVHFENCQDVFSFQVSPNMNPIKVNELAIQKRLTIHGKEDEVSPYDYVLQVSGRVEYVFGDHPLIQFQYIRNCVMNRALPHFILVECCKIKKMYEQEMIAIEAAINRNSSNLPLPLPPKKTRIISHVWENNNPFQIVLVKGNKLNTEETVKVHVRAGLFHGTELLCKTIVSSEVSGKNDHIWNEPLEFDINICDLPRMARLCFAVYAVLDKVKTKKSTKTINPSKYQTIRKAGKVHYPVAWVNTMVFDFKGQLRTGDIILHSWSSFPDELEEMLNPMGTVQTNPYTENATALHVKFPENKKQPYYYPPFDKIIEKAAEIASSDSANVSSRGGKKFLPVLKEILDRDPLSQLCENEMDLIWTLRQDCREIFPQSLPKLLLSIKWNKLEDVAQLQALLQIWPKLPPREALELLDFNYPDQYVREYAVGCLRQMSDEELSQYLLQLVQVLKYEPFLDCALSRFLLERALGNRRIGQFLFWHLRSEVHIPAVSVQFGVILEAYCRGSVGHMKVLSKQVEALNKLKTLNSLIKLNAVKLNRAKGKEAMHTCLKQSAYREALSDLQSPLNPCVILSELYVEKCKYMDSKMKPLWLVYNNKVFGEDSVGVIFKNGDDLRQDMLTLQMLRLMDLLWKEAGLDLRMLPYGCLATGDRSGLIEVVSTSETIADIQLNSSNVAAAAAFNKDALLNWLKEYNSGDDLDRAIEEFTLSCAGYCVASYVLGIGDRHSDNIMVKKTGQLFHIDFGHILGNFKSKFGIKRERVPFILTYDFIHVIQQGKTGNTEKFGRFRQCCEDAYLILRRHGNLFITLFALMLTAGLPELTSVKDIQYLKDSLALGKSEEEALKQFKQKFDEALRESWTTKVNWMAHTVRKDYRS

- structure-string: "CC(C)Oc1ccc(-c2nn([C@H](C)c3oc4ccc(F)cc4c(=O)c3-c3cccc(F)c3)c3ncnc(N)c23)cc1F"
  Kd: "> 10 µM"

* * *

target: Fibroblast growth factor receptor 4 (Homo sapiens, UniProt P22455); test: Inhibition of human recombinant FGFR4
Sequence (P22455 whole entry): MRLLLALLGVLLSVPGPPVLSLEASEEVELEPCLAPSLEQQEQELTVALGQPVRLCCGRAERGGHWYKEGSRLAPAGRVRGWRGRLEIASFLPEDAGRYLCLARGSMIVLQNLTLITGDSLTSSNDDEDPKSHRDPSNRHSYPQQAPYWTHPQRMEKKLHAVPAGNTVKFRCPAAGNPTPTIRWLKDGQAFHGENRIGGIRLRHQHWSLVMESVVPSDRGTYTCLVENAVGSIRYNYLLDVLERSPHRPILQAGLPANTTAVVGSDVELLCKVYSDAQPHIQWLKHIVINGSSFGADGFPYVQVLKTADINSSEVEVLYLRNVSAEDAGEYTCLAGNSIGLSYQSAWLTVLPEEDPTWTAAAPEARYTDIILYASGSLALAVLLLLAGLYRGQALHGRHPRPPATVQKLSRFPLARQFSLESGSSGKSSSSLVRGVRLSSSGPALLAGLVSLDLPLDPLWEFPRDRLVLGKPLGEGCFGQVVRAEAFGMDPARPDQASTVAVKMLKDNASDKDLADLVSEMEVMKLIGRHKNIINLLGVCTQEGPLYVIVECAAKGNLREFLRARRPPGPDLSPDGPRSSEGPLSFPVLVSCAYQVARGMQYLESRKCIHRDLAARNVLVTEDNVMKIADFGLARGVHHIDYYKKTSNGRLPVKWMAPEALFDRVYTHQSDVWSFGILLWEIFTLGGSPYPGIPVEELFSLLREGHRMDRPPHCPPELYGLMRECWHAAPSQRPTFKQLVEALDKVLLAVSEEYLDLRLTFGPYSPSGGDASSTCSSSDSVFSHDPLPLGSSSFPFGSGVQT
pIC50: −log10 of the molar value.
metric-name: pIC50

- structure-string: "C=CC(=O)N1CC[C@H](c2nc(-c3cc4cc(Br)cc(OC)c4s3)c3c(N)nccn23)C1"
  target-entity: "Fibroblast growth factor receptor 4 (Homo sapiens, UniProt P22455)"
  test-value: 9.30

* * *

molecular target: Fibroblast growth factor receptor 2 (Homo sapiens); experiment: Inhibition of human recombinant FGFR2 in the presence of ATP at 0.8 uM measured after 1 hr by fluorescence based assay

- structure-string: "COCc1c(-c2cc3cc(C)cc(OC)c3s2)c2c(N)ncnn2c1CN1CCNC(=O)C1"
  IC50: "< 1 nM"

* * *

target: Fibroblast growth factor receptor 2 (Homo sapiens, UniProt P21802); test: Inhibition of human recombinant FGFR2
Sequence (P21802 whole entry): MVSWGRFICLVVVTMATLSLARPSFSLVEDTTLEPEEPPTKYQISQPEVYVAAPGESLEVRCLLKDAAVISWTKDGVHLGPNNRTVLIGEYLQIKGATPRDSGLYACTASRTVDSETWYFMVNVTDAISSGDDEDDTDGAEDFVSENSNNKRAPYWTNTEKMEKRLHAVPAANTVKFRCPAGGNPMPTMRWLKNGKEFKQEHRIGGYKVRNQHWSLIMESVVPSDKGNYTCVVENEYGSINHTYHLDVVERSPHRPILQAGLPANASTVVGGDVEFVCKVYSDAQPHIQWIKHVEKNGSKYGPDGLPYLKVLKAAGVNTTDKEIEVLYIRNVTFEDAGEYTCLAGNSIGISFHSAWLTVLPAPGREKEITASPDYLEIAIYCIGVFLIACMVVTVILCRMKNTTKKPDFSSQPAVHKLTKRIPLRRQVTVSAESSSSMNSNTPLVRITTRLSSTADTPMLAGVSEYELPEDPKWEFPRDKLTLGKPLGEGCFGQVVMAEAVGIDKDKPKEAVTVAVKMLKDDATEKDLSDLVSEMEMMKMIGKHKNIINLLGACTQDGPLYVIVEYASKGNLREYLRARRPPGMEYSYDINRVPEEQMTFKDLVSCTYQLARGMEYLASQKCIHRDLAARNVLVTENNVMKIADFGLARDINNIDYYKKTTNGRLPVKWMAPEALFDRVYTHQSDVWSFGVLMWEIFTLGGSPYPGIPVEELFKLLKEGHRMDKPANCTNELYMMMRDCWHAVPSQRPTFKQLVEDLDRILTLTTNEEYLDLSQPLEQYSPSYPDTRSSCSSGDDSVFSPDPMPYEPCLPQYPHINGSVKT
pIC50: −log10 of the molar value.
metric-name: pIC50

- structure-string: "C=CC(=O)N1CC[C@H](c2nc(-c3cc4cc(Br)cc(OC)c4s3)c3c(N)nccn23)C1"
  target-entity: "Fibroblast growth factor receptor 2 (Homo sapiens, UniProt P21802)"
  test-value: 8.96

* * *

assay: Half life in rat at 3 mg/kg , po; format: ADME, organism-based; details: in vivo

- compound: "COCc1c(-c2cc3cc(C)cc(OC)c3s2)c2c(N)ncnn2c1CN1CCNC(=O)C1 [ROGARATINIB]"
  half-life: "12 h"

* * *

Below, each entry is listed with its recorded pIC50.
target: Fibroblast growth factor receptor 3 (Homo sapiens, UniProt P22607); assay: Inhibition of FGFR3 (unknown origin)
Sequence (P22607 whole entry): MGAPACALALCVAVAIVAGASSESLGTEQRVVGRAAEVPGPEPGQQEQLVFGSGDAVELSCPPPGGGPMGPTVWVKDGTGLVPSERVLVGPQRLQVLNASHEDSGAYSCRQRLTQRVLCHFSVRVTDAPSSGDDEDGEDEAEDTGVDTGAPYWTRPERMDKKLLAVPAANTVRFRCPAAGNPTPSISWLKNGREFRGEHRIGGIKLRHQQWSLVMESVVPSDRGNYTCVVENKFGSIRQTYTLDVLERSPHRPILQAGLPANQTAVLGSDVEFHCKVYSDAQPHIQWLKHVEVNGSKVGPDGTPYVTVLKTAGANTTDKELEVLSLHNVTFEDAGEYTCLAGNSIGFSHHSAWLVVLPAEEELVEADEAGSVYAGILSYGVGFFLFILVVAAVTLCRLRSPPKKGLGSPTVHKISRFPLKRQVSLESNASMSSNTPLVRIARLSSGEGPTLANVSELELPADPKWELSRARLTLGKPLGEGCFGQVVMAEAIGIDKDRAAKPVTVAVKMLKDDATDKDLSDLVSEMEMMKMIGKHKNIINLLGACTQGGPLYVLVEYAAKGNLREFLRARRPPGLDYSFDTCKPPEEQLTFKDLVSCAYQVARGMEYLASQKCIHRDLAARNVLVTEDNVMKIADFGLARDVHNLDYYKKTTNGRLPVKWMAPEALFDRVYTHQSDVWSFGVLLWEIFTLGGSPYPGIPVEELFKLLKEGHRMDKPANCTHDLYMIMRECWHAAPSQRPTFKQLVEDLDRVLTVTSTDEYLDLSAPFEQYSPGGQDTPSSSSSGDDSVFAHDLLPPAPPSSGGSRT
pIC50: −log10 of the molar value.
metric-name: pIC50

- structure-string: "C#CCO[C@@H]1[C@H](C)[C@@H](COC(=O)c2ccc(S(=O)(=O)F)cc2)O[C@H]1n1nc(-c2ccc(C)cc2)c2c(N)ncnc21"
  metric-name: "pIC50"
  test-value: 8.80
- structure-string: "C#CCO[C@@H]1[C@H](C)[C@@H](COS(=O)(=O)C=C)O[C@H]1n1nc(-c2ccc(C)cc2)c2c(N)ncnc21"
  metric-name: "pIC50"
  test-value: 6.58

* * *

molecular target: Epidermal growth factor receptor (Homo sapiens, UniProt P00533, C797S/T790M); test: Inhibition of EGFR T790M/C797S mutant (unknown origin)
Sequence (P00533 25-1210 T790M/C797S limits assumed): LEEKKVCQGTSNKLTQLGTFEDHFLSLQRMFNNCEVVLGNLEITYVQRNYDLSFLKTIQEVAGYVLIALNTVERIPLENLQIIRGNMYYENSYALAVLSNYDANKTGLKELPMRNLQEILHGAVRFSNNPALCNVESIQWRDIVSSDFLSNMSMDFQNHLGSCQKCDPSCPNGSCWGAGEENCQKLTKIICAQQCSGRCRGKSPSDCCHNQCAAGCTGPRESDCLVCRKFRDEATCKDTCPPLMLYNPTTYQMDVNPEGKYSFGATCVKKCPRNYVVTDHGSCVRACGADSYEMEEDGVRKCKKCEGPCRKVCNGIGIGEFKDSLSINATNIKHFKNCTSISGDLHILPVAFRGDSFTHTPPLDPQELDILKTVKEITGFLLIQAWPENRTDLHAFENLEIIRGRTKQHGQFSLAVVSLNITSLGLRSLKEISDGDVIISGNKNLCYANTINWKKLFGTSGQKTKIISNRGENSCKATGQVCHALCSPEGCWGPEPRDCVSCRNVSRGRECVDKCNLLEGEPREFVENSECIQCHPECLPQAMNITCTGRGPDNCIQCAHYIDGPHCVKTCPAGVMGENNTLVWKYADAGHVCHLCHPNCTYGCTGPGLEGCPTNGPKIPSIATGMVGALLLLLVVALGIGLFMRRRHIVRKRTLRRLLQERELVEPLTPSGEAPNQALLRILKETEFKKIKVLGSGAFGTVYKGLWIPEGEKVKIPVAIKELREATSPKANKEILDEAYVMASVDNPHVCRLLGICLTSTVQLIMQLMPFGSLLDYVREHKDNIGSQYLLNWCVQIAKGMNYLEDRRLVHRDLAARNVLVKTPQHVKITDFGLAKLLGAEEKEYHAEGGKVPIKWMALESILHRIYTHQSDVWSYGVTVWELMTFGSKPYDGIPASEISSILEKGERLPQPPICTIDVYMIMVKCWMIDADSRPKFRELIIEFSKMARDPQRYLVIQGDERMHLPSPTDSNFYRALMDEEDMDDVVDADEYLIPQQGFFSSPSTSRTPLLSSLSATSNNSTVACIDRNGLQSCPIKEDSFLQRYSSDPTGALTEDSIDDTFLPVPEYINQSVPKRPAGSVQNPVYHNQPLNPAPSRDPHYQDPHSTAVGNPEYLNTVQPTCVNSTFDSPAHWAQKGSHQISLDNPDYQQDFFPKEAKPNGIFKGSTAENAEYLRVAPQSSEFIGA
pIC50: −log10 of the molar value.
metric-name: pIC50

- structure-string: "C=CC(=O)N1CCC[C@@H](n2nc(-c3cn(C)c4ccccc34)c3c(N)ncnc32)C1"
  target-entity: "Epidermal growth factor receptor (Homo sapiens, UniProt P00533, C797S/T790M)"
  test-value: 8.72
